System: KRAS patient-derived spheroids with HUVEC/MSC, viability
Experiment: Anticancer human tumor 323965-272-R-J2-PDC patient-derived pancreatic carcinoma cell line growth inhibition [KRAS2]
Settings: curve of first compound; second compound 0.316 µM
Source text: Multicellular complex tumor spheroid response to RAS pathway inhibitors in combination with a targeted agents in patient-derived cell lines with oncogenic KRAS variants from multiple cancer types A high-throughput screen of multi-cell type tumor spheroids was designed to identify active combinations of targeted small molecules and KRAS pathway inhibitors. […] Compounds. […] If the clinical Cmax for an agent had not been determined, the highest concentration tested was 10 microM. […]
pIC50: −log10 of the molar value.
Everything with pIC50 lower than 7 is Condition not met; everything else, including exactly 7, is Condition met.

molecule | classAssignment
Cn1ncnc1[C@H]1c2n[nH]c(=O)c3cc(F)cc(c23)N[C@@H]1c1ccc(F)cc1 + C=CC(=O)N1CCN(c2nc(OCC3CCCN3C)nc3c2CCN(c2cccc4cccc(C)c24)C3)CC1CC#N | Condition not met
O=C(c1cc(Cc2n[nH]c(=O)c3ccccc23)ccc1F)N1CCN(C(=O)C2CC2)CC1 + COc1cc2nc(C)nc(NC(C)c3cc(N)cc(C(F)(F)F)c3)c2cc1OC1CCOC1 | Condition not met
CC(=O)Nc1cccc(-n2c(=O)n(C3CC3)c(=O)c3c(Nc4ccc(I)cc4F)n(C)c(=O)c(C)c32)c1 + C=CC(=O)N1CCN(c2nc(=O)n(-c3c(C)ccnc3C(C)C)c3nc(-c4c(O)cccc4F)c(F)cc23)C(C)C1 | Condition met
COC(=O)c1ccc2c(C(=Nc3ccc(N(C)C(=O)CN4CCN(C)CC4)cc3)c3ccccc3)c(O)[nH]c2c1 + C=CC(=O)N1CCN(c2nc(OCC3CCCN3C)nc3c2CCN(c2cccc4cccc(C)c24)C3)CC1CC#N | Condition not met
CC1OCC2(CCN(c3cnc(Sc4ccnc(N)c4Cl)c(N)n3)CC2)C1N (stereo unspecified) + C=CC(=O)N1CCN(c2nc(OCC3CCCN3C)nc3c2CCN(c2cccc4cccc(C)c24)C3)CC1CC#N | Condition met
COc1cc2nccc(Oc3ccc(NC(=O)C4(C(=O)Nc5ccc(F)cc5)CC4)cc3)c2cc1OC + CNCc1ccccc1-c1csc(C(C)Nc2nc(C)nc3cc(OC)c(OC)cc23)c1 | Condition not met
COc1cc(Nc2ncc3c(n2)-c2ccc(Cl)cc2C(c2c(F)cccc2OC)=NC3)ccc1C(=O)O + C=CC(=O)N1CCN(c2nc(=O)n(-c3c(C)ccnc3C(C)C)c3nc(-c4c(O)cccc4F)c(F)cc23)C(C)C1 | Condition met
CC(C)NCC(C(=O)N1CCN(c2ncnc3c2C(C)CC3O)CC1)c1ccc(Cl)cc1 (stereo unspecified) + COc1cc2nc(C)nc(NC(C)c3cc(N)cc(C(F)(F)F)c3)c2cc1OC1CCOC1 | Condition not met

Okay, next one:
Is reported pIC50 greater than or equal to 7 here: CCNC(=O)CC1N=C(c2ccc(Cl)cc2)c2cc(OC)ccc2-n2c(C)nnc21 (stereo unspecified) + C=CC(=O)N1CCN(c2nc(OCC3CCCN3C)nc3c2CCN(c2cccc4cccc(C)c24)C3)CC1CC#N
Condition not met

====

system: KRAS patient-derived spheroids with HUVEC/MSC, viability; test: Anticancer human tumor 323965-272-R-J2-PDC cell line growth inhibition [KRAS2]; settings: second compound 1 µM; first compound 3.16 µM; stronger effect = lower value;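 also: spheroids exposed to agents for 7 days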;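 as to viability, T/C: 100% = DMSO vehicle control viability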
measurementLabel: viability, T/C (%)
One number for each entry, in %.

compound | readoutUnits | endpointResult
COC(=O)c1ccc2c(C(=Nc3ccc(N(C)C(=O)CN4CCN(C)CC4)cc3)c3ccccc3)c(O)[nH]c2c1 + COc1cc2nc(C)nc(NC(C)c3cc(N)cc(C(F)(F)F)c3)c2cc1OC1CCOC1 | % | 70.8

Hi team, please reply with viability, T/C for each item in this list.
1. O=C(c1cc(Cc2n[nH]c(=O)c3ccccc23)ccc1F)N1CCN(C(=O)C2CC2)CC1 + CC1OCC2(CCN(c3cnc(Sc4ccnc(N)c4Cl)c(N)n3)CC2)C1N
2. Cn1nccc1Nc1nccc(-c2cc3c(s2)C(C)(C)N(CCN2CCOCC2)C3=O)n1 + CC1OCC2(CCN(c3cnc(Sc4ccnc(N)c4Cl)c(N)n3)CC2)C1N

[88.5, 23.3]

====

System: KRAS patient-derived spheroids with HUVEC/MSC, viability
Assay: Anticancer human tumor 323965-272-R-J2-PDC cell line growth inhibition [KRAS2];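 also: spheroids exposed to agents for 7 days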;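 as to viability, T/C: 100% = DMSO vehicle control viability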
Details: second compound 1 µM; first compound 3.16 µM; stronger effect = lower value
From the text: Multicellular complex tumor spheroid response to RAS pathway inhibitors in combination with a targeted agents in patient-derived cell lines with oncogenic KRAS variants from multiple cancer types A high-throughput screen of multi-cell type tumor spheroids was designed to identify active combinations of targeted small molecules and KRAS pathway inhibitors. […] Compounds. […] If the clinical Cmax for an agent had not been determined, the highest concentration tested was 10 microM. […]
Kindly supply the reported viability, T/C values for the records listed here.
One number for each entry, in %.

molecule | readoutUnits | viability, T/C
COc1cc(Nc2ncc3c(n2)-c2ccc(Cl)cc2C(c2c(F)cccc2OC)=NC3)ccc1C(=O)O + CC1OCC2(CCN(c3cnc(Sc4ccnc(N)c4Cl)c(N)n3)CC2)C1N | % | 30.4
CC(C)NCC(C(=O)N1CCN(c2ncnc3c2C(C)CC3O)CC1)c1ccc(Cl)cc1 (stereo not drawn) + COc1cc2nc(C)nc(NC(C)c3cc(N)cc(C(F)(F)F)c3)c2cc1OC1CCOC1 | % | 27.8

# ---- query molecule ----
# get_value(readout='viability, T/C', item= CC1COCCN1c1cc(-c2ccnn2C)c2ccnc(-c3ccn[nH]3)c2n1 (stereo not drawn) + C=CC(=O)N1CCN(c2nc(=O)n(-c3c(C)ccnc3C(C)C)c3nc(-c4c(O)cccc4F)c(F)cc23)C(C)C1 )
13.5

====

system: KRAS patient-derived spheroids with HUVEC/MSC, viability; experiment: Anticancer human tumor 323965-272-R-J2-PDC cell line growth inhibition [KRAS2]; conditions: second compound 0.1 µM; first compound 0.316 µM; stronger effect = lower value;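 also: spheroids exposed to agents for 7 days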;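 as to viability, T/C: 100% = DMSO vehicle control viability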
Could you please report measured viability, T/C for the items listed next?
Give bare numbers, in %.

Observe how each entry below is paired with its result.
compound | assayedTarget | readoutUnits | viability, T/C
CC1COCCN1c1cc(-c2ccnn2C)c2ccnc(-c3ccn[nH]3)c2n1 (stereo not drawn) + C=CC(=O)N1CCN(c2nc(OCC3CCCN3C)nc3c2CCN(c2cccc4cccc(C)c24)C3)CC1CC#N | KRAS patient-derived spheroids with HUVEC/MSC, viability | % | 14.8
Cn1nccc1Nc1nccc(-c2cc3c(s2)C(C)(C)N(CCN2CCOCC2)C3=O)n1 + CNCc1ccccc1-c1csc(C(C)Nc2nc(C)nc3cc(OC)c(OC)cc23)c1 | KRAS patient-derived spheroids with HUVEC/MSC, viability | % | 64.6

What viability, T/C value was documented for this compound, COC(=O)c1ccc2c(C(=Nc3ccc(N(C)C(=O)CN4CCN(C)CC4)cc3)c3ccccc3)c(O)[nH]c2c1 + CNCc1ccccc1-c1csc(C(C)Nc2nc(C)nc3cc(OC)c(OC)cc23)c1 ?
102

====

Tested on: KRAS patient-derived spheroids with HUVEC/MSC, viability
Assay: Anticancer human tumor 323965-272-R-J2-PDC cell line growth inhibition [KRAS2];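 also: spheroids exposed to agents for 7 days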
Conditions: compound alone; run of 08/26/2021
Source text: Multicellular complex tumor spheroid response to RAS pathway inhibitors in combination with a targeted agents in patient-derived cell lines with oncogenic KRAS variants from multiple cancer types A high-throughput screen of multi-cell type tumor spheroids was designed to identify active combinations of targeted small molecules and KRAS pathway inhibitors. […] Compounds. […] If the clinical Cmax for an agent had not been determined, the highest concentration tested was 10 microM. […]
Provide the recorded IC50 for the entries that follow.

Known results for compounds:
compound | assayedTarget | IC50
CC1OCC2(CCN(c3cnc(Sc4ccnc(N)c4Cl)c(N)n3)CC2)C1N (centres undefined) | KRAS patient-derived spheroids with HUVEC/MSC, viability | 785 nM [middle of 5 runs]
C=CC(=O)N1CCN(c2nc(OCC3CCCN3C)nc3c2CCN(c2cccc4cccc(C)c24)C3)CC1CC#N (centres undefined) | KRAS patient-derived spheroids with HUVEC/MSC, viability | 1.07 µM [middle of 5 runs]
CNCc1ccccc1-c1csc(C(C)Nc2nc(C)nc3cc(OC)c(OC)cc23)c1 (centres undefined) | KRAS patient-derived spheroids with HUVEC/MSC, viability | 5.39 µM [middle of 4 runs]

Now for a further compound.
Looking for the measured IC50 of COc1cc2nc(C)nc(NC(C)c3cc(N)cc(C(F)(F)F)c3)c2cc1OC1CCOC1 (centres undefined) , can you help?
> 10 µM

====

tested on: KRAS patient-derived spheroids with HUVEC/MSC, viability; test: Anticancer human tumor 323965-272-R-J2-PDC cell line growth inhibition [KRAS2]; conditions: curve of first compound; second compound 0.316 µM;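 also: spheroids exposed to agents for 7 days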
measurementLabel: IC50 (µM)
One number for each entry, in µM.

molecule | readoutUnits | endpointResult
COC(=O)c1ccc2c(C(=Nc3ccc(N(C)C(=O)CN4CCN(C)CC4)cc3)c3ccccc3)c(O)[nH]c2c1 + C=CC(=O)N1CCN(c2nc(=O)n(-c3c(C)ccnc3C(C)C)c3nc(-c4c(O)cccc4F)c(F)cc23)C(C)C1 | µM | 0.536

Here is another molecule to look at.
Entry CC1(C)CCC(CN2CCN(c3ccc(C(=O)NS(=O)(=O)c4ccc(NCC5CCOCC5)c([N+](=O)[O-])c4)c(Oc4cnc5[nH]ccc5c4)c3)CC2)=C(c2ccc(Cl)cc2)C1 + CC1OCC2(CCN(c3cnc(Sc4ccnc(N)c4Cl)c(N)n3)CC2)C1N has what IC50?
1.07
